The reported numbers originate from PubChem BioAssay (NCI).

tested on: HL-60(TB) leukemia; assay: NCI tumour cell line growth inhibition, 48 h

{"columns": ["molecule", "test_system", "TGI"],
 "data": [
  ["N#Cc1ccc(Sc2nc3ccccc3[nH]2)cc1", "HL-60(TB) leukemia", "> 100 µM"],
  ["COC(=O)c1cc2c(cc1Cl)Sc1nnc(Nc3ccccc3)n1S2(=O)=O", "HL-60(TB) leukemia", "7.62 µM"],
  ["CCC(c1ccccc1)c1noc(CCN(CC)CC)n1 (stereo unspecified)", "HL-60(TB) leukemia", "54.5 µM"],
  ["CSc1nc2nc(-c3ccccc3)c(C)c-2c2n1C(C)C(=O)N2 (stereo unspecified)", "HL-60(TB) leukemia", "> 100 µM"],
  ["Cc1ccccc1C(CCCO)C(=O)O (stereo unspecified)", "HL-60(TB) leukemia", "> 100 µM"],
  ["Cc1ccc(OCC2OC(n3cnc4c(Cl)nc(Nc5cc(Cl)cc(Cl)c5)nc43)CC2Oc2ccc(C)cc2)cc1 (stereo unspecified)", "HL-60(TB) leukemia", "> 100 µM"]
]}

---

The molecules listed here are annotated with their TGI.
system: SK-OV-3 ovarian; assay: NCI tumour cell line growth inhibition, 48 h
readout_type: TGI

{"columns": ["molecule", "reading"],
 "data": [
  ["COC(=O)[C@@]12OC[C@]34C([C@@H](O)C1O)[C@@]1(C)CC(=O)C(OC(=O)CC(C)C(F)(F)F)=C(C)C1C[C@H]3OC(=O)[C@H](O)[C@H]42 (some centres undefined)", "> 62.5 µM"],
  ["Cc1c(C)c2c(c(N)c1C#N)C(=O)N(Cc1ccc(S(N)(=O)=O)cc1)C2=O", "> 100 µM"],
  ["C[C@@H]1CC[C@]2(C)C3(C)CC[C@]2(OC3=O)[C@@]12CC(c1ccoc1)OC2=O (some centres undefined)", "> 100 µM"],
  ["O=C1c2cc3c(cc2-c2c1c1ccc(Cl)cc1c(=O)n2C[C@H](O)CO)OCO3", "1.66 µM"]
]}

---

tested on: SF-539 CNS; experiment: NCI tumour cell line growth inhibition, 48 h
Here the recorded GI50 is given for each entry.
readout_type: GI50

{"columns": ["compound", "reading"],
 "data": [
  ["CCSCC1CC(O)(c2ccccc2)C(c2ccccc2)C(c2ccc(F)cc2)O1 (configuration not stated)", "1.6 µM"],
  ["C=C(C#N)C(=O)OCC(CC)CC.C=C(C#N)C(=O)OCC(CC)CC.CS(C)=O.CS(C)=O.Nc1c(N=Nc2ccc(-c3ccc(N=Nc4cc(S(=O)(=O)[O-])c5ccccc5c4N)cc3)cc2)cc(S(=O)(=O)[O-])c2ccccc12.[Pt+2]", "84.7 µM"],
  ["COc1ccc(-c2cc(/C=C/C(=O)c3ccc(N)cc3)[nH]n2)cc1OC", "1.73 µM"],
  ["CC(=O)Oc1c(C(=O)[O-])cc(C(C)C)cc1C(C)C.CC(=O)Oc1c(C(=O)[O-])cc(C(C)C)cc1C(C)C.CC(=O)Oc1c(C(=O)[O-])cc(C(C)C)cc1C(C)C.CC(=O)Oc1c(C(=O)[O-])cc(C(C)C)cc1C(C)C.[Cu+2].[Cu+2]", "72.3 µM"],
  ["Fc1ccc(NC(c2ccc(F)cc2)C2CCN(CCCCc3ccccc3)CC2)cc1 (configuration not stated)", "1.71 µM"],
  ["CCc1ccc(Nc2cc(C)c3ccc(O)cc3n2)cc1", "5.74 µM"],
  ["CC(=O)NC1C(O[C@H]2C[C@H]3[C@@H]4CC=C5C[C@@H](O)CC[C@]5(C)[C@H]4CC[C@]3(C)[C@H]2[C@H](C)C(=O)CCC(C)C)OCC(O)C1O (some centres not stated)", "0.568 µM"]
]}
